Each record here notes measured log10(TGI).
- Tested on: SN12C renal
- Test name: NCI tumour cell line growth inhibition, 48 h
Recall that a logarithmic scale is used here: each number is log10 of TGI in µM.

Below: 6 compounds and their reported log10(TGI).
For Cc1cc(S(=O)(=O)Nc2nc3cc(Cl)ccc3o2)c(SCc2ccccc2)cc1Cl the compound record lists log10(TGI) as 1.69

For COCCNC1CCC2(SCCS2)c2[nH]c3ccccc3c21 (configuration not stated) the compound record lists log10(TGI) as 1.96

For COc1ccc(C[C@@H]2OC3(C=CC(=O)C=C3)O[C@H]2Cc2ccc(OC)cc2)cc1 the compound record lists log10(TGI) as 0.50

For O=C(CCl)Nc1cc(O)c2c(c1)C(=O)c1cccc(O)c1C2=O the compound record lists log10(TGI) as 0.30

For O=C1OC(=O)C2C1C(c1ccccc1[N+](=O)[O-])C=C(c1ccco1)N2c1ccncc1 (configuration not stated) the compound record lists log10(TGI) as 1.40

For COc1ccc2nc3cccc(C(=O)NCCN(C)C)c3nc2c1 the compound record lists log10(TGI) as 0.69

New cases:
For CCCCCCCCCCCCCCCCP(=O)([O-])OCC[N+](C)(C)C the compound record lists log10(TGI) as 1.42

For CCN(CC)CCC(=O)c1ccc(Oc2ccc(F)cc2)cc1 the compound record lists log10(TGI) as 1.51

For O=C(NCCCCOCC#Cc1ccccc1C#CCS(=O)(=O)c1ccccc1)c1cc2ccccc2[nH]1 the compound record lists log10(TGI) as 1.40

* * *

- System: MCF7 breast
- Test name: NCI tumour cell line growth inhibition, 48 h; in the data active means GI50 below about 0.43 µM; inactive means the rest
The categories you may choose from are active, inactive

Past entries and their recorded results:
State the result this test recorded for O=c1c2c3c(sc2n2c(-c4ccc(Br)cc4)nnc2n1Cc1ccccc1)CCCC3 .
inactive

State the result this test recorded for C1CC[N-]CC1.CC(=N\O)/C(C)=N/O.CC(=N\O)/C(C)=N/O.[CH2-]CCN1CCOCC1.[Co+2] .
inactive

State the result this test recorded for O=C(CCl)Nc1cc(O)c2c(c1)C(=O)c1cccc(O)c1C2=O .
inactive

State the result this test recorded for COc1c(N2CCN(Cn3c(O)c(N=NC(=O)c4ccncc4)c4cc(F)ccc43)C(C)C2)c(F)cc2c(=O)c(C(=O)O)cn(C3CC3)c12 (centres undefined) .
inactive

State the result this test recorded for COc1ccc2[nH]c(O)c(/C=c3/cc4c(c(-c5ccc(F)cc5)n3)=Nc3ccccc3-4)c2c1 .
inactive

State the result this test recorded for COc1cccc(C2=C(c3cn(C)c4cccc(OC)c34)C(=O)NC2=O)c1 .
inactive

New cases:
State the result this test recorded for COc1ccc(/C=N/N=C(\[O-])c2ccncc2)cc1F.COc1ccc(/C=N\N=C(/[O-])c2ccncc2)cc1F.[Cu+2] .
inactive

State the result this test recorded for COc1cc2c(cc1OC)-c1ncc3cc4c(cc3c1C2)OCO4 .
inactive

State the result this test recorded for CN(C)CCNc1nc2ccccc2c2c(=O)c3ccccc3sc12 .
inactive

State the result this test recorded for COc1ccc(-c2c(N)n[nH]c2-c2cc(OC)c(OC)c(OC)c2)cc1 .
active

State the result this test recorded for CCc1nc(-n2c(-c3ccccc3)nc3ccccc3c2=O)nc(N)c1-c1ccc(Cl)cc1 .
inactive

State the result this test recorded for CC(C)(C)C(=O)OCc1nc2cc3c(cc2c(=O)[nH]1)CCC3=O .
inactive

State the result this test recorded for O=C(CC(=O)c1ccccc1)c1ccccc1 .
inactive

State the result this test recorded for CC1(C)[C@@H](OC(N)=O)C=C[C@]2(C=O)[C@H]3CC[C@]4(C)[C@@H](c5ccc(=O)oc5)[C@@H](Cl)C[C@]4(O)C3=CC[C@@H]12 .
active

* * *

- Tested on: UACC-62 melanoma
- Test name: NCI tumour cell line growth inhibition, 48 h
Each record here notes measured GI50.

The compound CCCn1c(N)c(C(=O)CNc2ccc(I)cc2)c(=O)[nH]c1=O , when measured on UACC-62 melanoma, yielded GI50 of 1.15 µM

* * *

- System: SF-539 CNS
- Test name: NCI tumour cell line growth inhibition, 48 h
Property measured: TGI (µM)
# unit: µM | format: bare number

The compound CCOC(=O)Cc1csc(NC(=O)COC(=O)c2ccc(OC)cc2)n1 , when measured on SF-539 CNS, yielded TGI of 37.7

The compound COc1ccc(/C=N/N=C(\[O-])c2ccncc2)cc1F.COc1ccc(/C=N\N=C(/[O-])c2ccncc2)cc1F.[Cu+2] , when measured on SF-539 CNS, yielded TGI of 37.1

The compound COc1ccc(C(=O)O/N=C2/CCC/C2=C\c2ccccc2)cc1 , when measured on SF-539 CNS, yielded TGI of 99.6

New cases:
The compound COc1cccc(-c2cc(=O)c3cc(Cl)cnc3[nH]2)c1 , when measured on SF-539 CNS, yielded TGI of 2.56

The compound CC1(C)[C@@H](OC(N)=O)C=C[C@]2(C=O)[C@H]3CC[C@]4(C)[C@@H](c5ccc(=O)oc5)[C@@H](Cl)C[C@]4(O)C3=CC[C@@H]12 , when measured on SF-539 CNS, yielded TGI of 0.00848

The compound CC1CC[C@@]2(OC1)OC1C[C@H]3[C@@H]4CCC5CC(O)CC[C@]5(C)[C@H]4C/C(=N\N(C)C)[C@]3(C)C1[C@@H]2C (some centres undefined) , when measured on SF-539 CNS, yielded TGI of 60.9

* * *

- Tested on: SK-MEL-2 melanoma
- Test name: NCI tumour cell line growth inhibition, 48 h
Each record here notes measured TGI.
# unit: µM | format: bare number

Below: 8 compounds and their reported TGI.
For O=P1(c2ccccc2)C2=CCC=CC2C(c2ccccc2)N1Cc1ccccc1 (stereo not drawn) the compound record lists TGI as 29.9

For O=c1c2c3c(sc2n2c(-c4ccc(Br)cc4)nnc2n1Cc1ccccc1)CCCC3 the compound record lists TGI as 21.2

For N=C(c1cccs1)C1(N2CCCCC2)CCCCC1 the compound record lists TGI as 31.3

For OCC(O)C(O)C(O)C(O)/C=N/Nc1nc(O)c(/C=C2\C=Nc3ccccc32)[nH]1 (stereo not drawn) the compound record lists TGI as 97.7

For CN1CCN(CCOc2ccc(-c3cnc4c(-c5ccc(F)cc5)cnn4c3)cc2)CC1 the compound record lists TGI as 4.31

For CC[C@H](C)C1=C(OC(C)=O)[N@+]2([O-])Oc3ccc(-c4c(OC(C)=O)c(OC(C)=O)c(-c5ccc(OC(C)=O)cc5)c(OC(C)=O)c4OC(C)=O)cc3O[C@]2([C@@H](C)CC)C(=O)N1OC(C)=O the compound record lists TGI as 24.1

For COc1ccc2c(c1)CC[C@@H]1[C@@H]2CC[C@]2(C)C=C(/C=C/C(=O)c3ccccc3)C[C@@H]12 the compound record lists TGI as 41.5

For O=C(Oc1cccc(Cl)c1)c1cc2cc(CCl)ccc2oc1=O the compound record lists TGI as 28.9

New cases:
For O=C(Nc1ccc(I)cc1F)c1cc(I)ccc1O the compound record lists TGI as 1.59

For C=CC(Br)(CBr)CCC(Br)C(C)C (stereo not drawn) the compound record lists TGI as 12.8

For OC(COc1cccc2ccccc12)CN1CCN(c2ccccc2Cl)CC1 (stereo not drawn) the compound record lists TGI as 29.5

For CCCCCCCCCCCCCCCCP(=O)([O-])OCC[N+](C)(C)C the compound record lists TGI as 31.5

For c1ccc2nc(OCCN3CC3)ccc2c1 the compound record lists TGI as 31.6

For O=C(Nc1cc(-c2cccnc2)nc(NCCCN2CCOCC2)n1)c1cc(Br)cc(C(F)(F)F)c1 the compound record lists TGI as 17

For O=C(Nc1cccc(C(F)(F)F)c1)c1cc(Br)cc(Br)c1O the compound record lists TGI as 5.07

* * *

- Tested on: SF-268 CNS
- Test name: NCI tumour cell line growth inhibition, 48 h
Each record here notes measured TGI.

For O=C1c2cc([N+](=O)[O-])sc2C(=O)c2ccsc21 the compound record lists TGI as 1.06 µM

For Cc1ncc([N+](=O)[O-])n1CCNC(=O)CCCCCn1ccnc1[N+](=O)[O-] the compound record lists TGI as > 100 µM

For C#CCN(Cc1nc2cc(C(F)(F)F)ccc2nc1-c1ccccc1)c1ccc(F)c(F)c1 the compound record lists TGI as > 100 µM

For O=S(=O)(O)ONC1=NCCN1 the compound record lists TGI as > 100 µM

For CSC1=C(C(=O)Nc2ccccc2)C(N)=NC1=O the compound record lists TGI as > 100 µM

Lab note: next compound to report on.
For CN1B(c2ccccc2)N(C)C(=O)N(C)C1=O the compound record lists TGI as > 100 µM
